# protocol_text: self-splicing fitness, log relative to wild type (ln ratio); higher = more splicing; Tetrahymena group I intron in knt gene, E. coli kanamycin selection, DiMSum; sequences stand for … in CUCUCU…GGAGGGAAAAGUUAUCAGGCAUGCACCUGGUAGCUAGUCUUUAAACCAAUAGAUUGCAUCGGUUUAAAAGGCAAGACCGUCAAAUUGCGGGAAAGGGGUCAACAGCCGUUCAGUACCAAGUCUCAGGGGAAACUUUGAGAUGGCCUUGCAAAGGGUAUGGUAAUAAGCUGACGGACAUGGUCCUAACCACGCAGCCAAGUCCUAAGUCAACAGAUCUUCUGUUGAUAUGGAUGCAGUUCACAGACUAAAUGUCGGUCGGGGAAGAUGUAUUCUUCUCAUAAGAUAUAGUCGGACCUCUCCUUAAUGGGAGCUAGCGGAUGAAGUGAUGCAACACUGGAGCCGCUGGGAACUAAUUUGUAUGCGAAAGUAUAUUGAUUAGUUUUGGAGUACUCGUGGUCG;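 further: selection with 25 µg/mL kanamycin versus none on LB agar overnight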
# conditions: 30 °C
Class (by self-splicing fitness (ln)) -- zone 1: < -3; zone 2: ≥ -3 and < -1; zone 3: ≥ -1

The following sequences have reported results that may help.
sequence_text: ACACAGCAAUAUUACGAAUA
assigned_category: zone 2

sequence_text: CACGAGCAAUAUUACGCGUC
assigned_category: zone 1

sequence_text: CGAUAGCAAUAUUACGAACG
assigned_category: zone 3

sequence_text: CUAUAGCAAUAUUACGGUCC
assigned_category: zone 1

sequence_text: UCCUAGCAAUAUUACGCGAC
assigned_category: zone 1

Just checking, what class would you give `AUUGAGCAAUAUUACGGCAU` here?
zone 2

Item: `UACUAGCAAUAUUACGUUAA`
zone 2

Queued: `CUGCAGCAAUAUUACGCGUU`
zone 1

Item: `GAGCAGCAAUAUUACGAACA`
zone 2

Try this sequence next: `GGUAAGCAAUAUUACGUUAG`
zone 1
